- Test system: BT-549 breast
- protocolNotes: NCI-60 one-dose screen, 48 h (100 = growth as untreated, 0 = no growth, -100 = all killed)
- appliedConditions: 10 µM unless noted
Compounds without any hit were thinned out: in the full panel of roughly 83,000, 20% have a hit.
Hi! Just check whether growth is below 30%. Below gives MET, equal or above gives NOT MET.

molecule	category
CC1(C)CC[C@]2(CO)CC[C@]3(C)[C@](O)([C@H](O)C[C@@H]4[C@@]5(C)CCCNC(C)(C)[C@@H]5CC[C@]43C)[C@@H]2C1	NOT MET
COC(=O)c1nc(-c2ccccc2)oc1S(=O)(=O)N1CCCC(C)C1 (centres undefined)	NOT MET
Fc1cc2[nH]ncc2c2c3c(c(-c4cn[nH]c4C(F)(F)F)nc12)CCCC3	MET
CC1(C)CC[C@]23CC[C@]4(C)[C@H](CC[C@@H]5[C@@]6(C)C/C(=C/O)C(=O)C(C)(C)[C@@H]6CC[C@]54C)[C@H]2[C@H]1OC3	NOT MET
O=CN1N=C(c2cccc(Nc3ccnc4cc(Cl)ccc34)c2)CC1c1ccc(Cl)cc1 (centres undefined)	MET
COc1ccc(Nc2ncc(I)c(NCCCNC(=O)C3CCC3)n2)cc1	MET

Challenge: Could you please tell me whether growth recorded for CN(C)CCC(=O)C1CC1 is less than 30%?
Response given: NOT MET

Challenge: Could you please tell me whether growth recorded for CC(C)NS(=O)(=O)/N=C1\NC(=O)NC1=C(Cl)Cl is less than 30%?
Response given: NOT MET

----------
- Test system: A549/ATCC NSCLC
- protocolNotes: NCI-60 one-dose screen, 48 h
- appliedConditions: 10 µM unless noted
Compounds without any hit were thinned out: in the full panel of roughly 83,000, 20% have a hit. Activity calls are given as the source filed them. The calls were made as follows: active = growth percent below 10; inactive = the rest.
Parameter call: string, one of 1 = active, -1 = inactive

For orientation, consider the following solved cases.
compound	category
CCN1C(=O)N(c2ccccc2)C2NC(=S)N(/N=C/C=C/c3ccccc3OC)C21 (stereo not given)	-1
CCOc1ccc(/C=C/C(=O)c2cccc(OCCCOc3cccc(C(=O)/C=C/c4ccc(OCC)cc4)c3)c2)cc1	-1
COc1cc2c(c(OC)c1OC)C(=O)CC(c1cccc(C(=O)Nc3ccc(C#N)cc3)c1)O2 (stereo not given)	-1

Challenge: State the result this test recorded for CC(=O)c1ccc(-n2cc(CN3CCN(c4cc5c(cc4F)c(=O)c(C(=O)O)cn5C4CC4)CC3)nn2)cc1 .
Response given: -1

Challenge: State the result this test recorded for C=C(c1ccc(C(=O)O)c(F)c1)c1cc2c(cc1C)C(C)(C)CCC2(C)C .
Response given: -1

Challenge: State the result this test recorded for COc1ccc(-c2cc(-c3cc(OC)ccc3OC)nc(SCC(C)=O)c2C#N)cc1 .
Response given: -1

Challenge: State the result this test recorded for COc1ccc(C/C(C)=C(\c2ccc(Cl)cc2)c2ccc(OCCCN(C)C)cc2)cc1 .
Response given: -1

----------
- Test system: SK-OV-3 ovarian
- protocolNotes: NCI-60 one-dose screen, 48 h (100 = growth as untreated, 0 = no growth, -100 = all killed)
- appliedConditions: 10 µM unless noted
About 83,000 compounds went through this panel and 20% of them were active in at least one assay; those are over-represented in the sample as a whole.
Exercise: state measured growth for each of the compounds provided.
Answers are plain numbers, in %.

State recorded growth for all listed compounds.
1. Fc1ccc2[nH]cc(-c3nc(-c4c[nH]c5c(Cl)nccc45)cs3)c2c1
2. CCCCCc1ccc(S(=O)(=O)Nc2ccc3nc(N)oc3c2)cc1
3. COc1ccc(Nc2ncc(I)c(NCCCNC(=O)C3CCC3)n2)cc1
4. C=C1C(=O)O[C@H]2[C@H]1CC/C(COC(=O)/C=C\C(=O)NCc1ccc(Cn3c(=O)sn(CCCCl)c3=O)cc1)=C\CC[C@@]1(C)O[C@@H]21

Response given:
1: 47.5; 2: 81.8; 3: -3.33; 4: 97.4

Value of measured growth for the entry Cc1c(C(C)(C)O)cn2ncnc(Oc3ccc(NC(=O)Nc4ccc(Cl)c(C(F)(F)F)c4)c(F)c3)c12 : 95.6

----------
- System: COLO 205 colon
- protocolNotes: NCI-60 one-dose screen, 48 h (100 = growth as untreated, 0 = no growth, -100 = all killed)
- appliedConditions: 10 µM unless noted
This is part of a sample that, as a whole, favours compounds with a hit. Of some 83,000 tested, about 20% had one in any assay. The source made the active and inactive calls. The calls were made as follows: active = growth percent below 10; inactive = the rest.
metricName: growth

Some molecules with recorded growth:
molecule	growth
CC[C@@H](C(=O)[C@@H](C)[C@@H](O)[C@H](C)[C@@H]1O[C@@H]([C@@H](CC)C(=O)ONC(=O)c2ccccc2O)CC[C@@H]1C)C1O[C@]2(C=CC(=O)[C@]3(CC[C@@](C)([C@H]4CC[C@](O)(CC)[C@H](C)O4)O3)O2)[C@H](C)C[C@@H]1C (some centres undefined)	11.6% (inactive)
COc1c2c(cc3c1C(=O)N[C@@H]1[C@@H](O)[C@@H](O)[C@H](O)C[C@@H]31)OCCO2	103% (inactive)
c1ccc(-c2ccc3c(c2)C2(CCNCC2)CN3)cc1	103% (inactive)
CCCC(O)Cn1ncc(C(=O)OCC)c1NC(=O)NCc1cccc(C(F)(F)F)c1 (centres undefined)	109% (inactive)
ClCCn1cnc2c(SCc3ccccc3)ncnc21	52.4% (inactive)
O=C1/C(=C/c2ccc(Cl)cc2)CN(C(=O)C(Cl)Cl)C/C1=C\c1ccc(Cl)cc1	-68.5% (active)
Cc1c(O)cc(-c2cnc(N/N=C/c3ccccc3)s2)c(O)c1C	111% (inactive)
COCCOC(C)C(/C=N/NC(N)=S)=N/NC(N)=S (centres undefined)	90.6% (inactive)

Value of measured growth for the entry Clc1ccc(Nc2nnc(CNc3ccccc3)c3ccccc23)cc1 : 11.9% (inactive)

----------
- System: SK-MEL-5 melanoma
- protocolNotes: NCI-60 one-dose screen, 48 h
- appliedConditions: 10 µM unless noted
Compounds without any hit were thinned out: in the full panel of roughly 83,000, 20% have a hit. Calls of active or inactive are those of the source. The calls were made as follows: active = growth percent below 10; inactive = the rest.
Parameter call: string, one of class 1 (active), class 0 (inactive)

For orientation, consider the following solved cases.
molecule	category
CN(C)c1ccc(CNCCO)cc1	class 0
N=C(N)c1ccc(-c2ccc(-c3ccccc3)o2)o1	class 0
C#CCOc1ccc2nc(CCl)c(Cl)c(Nc3cccc(C(F)(F)F)c3)c2c1	class 0

Challenge: State the result this test recorded for COc1ccc(/C=N/Nc2c3ccccc3nc3ccccc23)cc1 .
Response given: class 0

Challenge: State the result this test recorded for O=C(Nc1cccnc1Nc1ccc(Cl)cc1)c1cn(Cc2cccc(Oc3ccccc3)c2)nn1 .
Response given: class 0

Challenge: State the result this test recorded for O=C(CCCCCCCC(=O)N1CCCCC1)N1CCCCC1 .
Response given: class 0

Challenge: State the result this test recorded for COc1ccc2cc(C(=O)N3CCC([C@@H](C)C(=O)NCc4ccc5c(c4)OCO5)CC3)[nH]c2c1 .
Response given: class 0

Challenge: State the result this test recorded for COc1ccc(Oc2ccc(/C=C/C(=O)c3ccc(OC)c(OC)c3)cc2)cc1 .
Response given: class 0

Challenge: State the result this test recorded for CCOC(=O)c1cn2ncnc(Oc3ccc(NC(=O)NC4CC4)c(Cl)c3)c2c1C .
Response given: class 0

Challenge: State the result this test recorded for CN(C)CCCNC(=O)c1cncnc1Nc1ccc2c(ccn2Cc2cccc(F)c2)c1 .
Response given: class 0

Challenge: State the result this test recorded for COc1cc2ncnc(Nc3ccc(F)c(Cl)c3)c2cc1OCC(=O)N1CCOCC1 .
Response given: class 0

Challenge: State the result this test recorded for CN(C)c1ccc(/C=N\NC(=O)c2ccc3nc(-c4ccc(Cl)cc4)[nH]c3c2)cc1 .
Response given: class 0

Challenge: State the result this test recorded for CSc1nc2ccc(C)cc2cc1/C=C1/C=C(c2ccccc2)NC1=O .
Response given: class 0

Challenge: State the result this test recorded for Cc1cc(=O)n(C(=S)Nc2ccc(Cl)cc2)c2cc(O)ccc12 .
Response given: class 0

Challenge: State the result this test recorded for O=C(Nc1cc(Cl)ccc1O)c1ccccc1Nc1ccnc(C(F)(F)F)c1 .
Response given: class 1

Challenge: State the result this test recorded for CCCCCc1ccc(S(=O)(=O)Nc2ccc3nc(N)oc3c2)cc1 .
Response given: class 1

Challenge: State the result this test recorded for CCOc1ncc([N+](=O)[O-])c(OCC)n1 .
Response given: class 0

Challenge: State the result this test recorded for COc1ccc(-c2cc(-c3cc(OC)ccc3OC)nc(SCC(C)=O)c2C#N)cc1 .
Response given: class 0

Challenge: State the result this test recorded for CCn1cc(C(=O)N/N=C/c2cccc(F)c2)c(=O)c2cc(F)c(N3CCNC(C)C3)c(F)c21 (stereo not given) .
Response given: class 0

Challenge: State the result this test recorded for CN1CC(c2ccc(Br)cc2)C(C(=O)c2ccc(Br)cc2)C12C(=O)Nc1ccccc12 (stereo not given) .
Response given: class 0

Challenge: State the result this test recorded for N#Cc1c(-c2ccccc2)nc2c(c(-c3ccccc3)nn2-c2ccccc2)c1-c1ccc(N2CCCCC2)cc1 .
Response given: class 0

Challenge: State the result this test recorded for Cn1cc(-c2nc3c(F)cc4[nH]ncc4c3c3c2CCCC3)c(C(F)(F)F)n1 .
Response given: class 0
